# credit: ChEMBL document CHEMBL4680159

GI50 reference
test system: CCRF-CEM; experiment: Antiproliferative activity against human CEM cells assessed as growth inhibition measured after 72 hrs by calcein AM dye-based fluorescence assay; type: functional
# unit: µM | format: bare number

Example results:
chem-smiles	measured-number
Cc1ccc(NC(=O)[C@H](CC(C)C)NC(=O)[C@H](CC(C)C)NC(=O)c2cc(Cl)ccc2OCc2ccccc2)cc1	52.8
COc1ccc(NC(=O)[C@H](CC(C)C)NC(=O)[C@H](CC(C)C)NC(=O)c2cc(Cl)ccc2O)cc1	23.3

// recorded GI50 for O=C(N[C@@H](Cc1ccccc1)C(=O)N[C@@H](Cc1ccccc1)C(=O)Nc1ccc(C(F)(F)F)cc1)c1cc(Cl)ccc1OCc1ccccc1 : 11.3

// recorded GI50 for CC(C)C[C@H](NC(=O)c1cc(Cl)ccc1O)C(=O)N[C@@H](CC(C)C)C(=O)NC1CCCCC1 : 38.2

// recorded GI50 for O=C(N[C@@H](Cc1ccccc1)C(=O)N[C@@H](Cc1ccccc1)C(=O)Nc1ccc(Cl)c(Cl)c1)c1cc(Cl)ccc1OCc1ccccc1 : 32.8

// recorded GI50 for CC(C)C[C@H](NC(=O)c1cc(Cl)ccc1O)C(=O)N[C@@H](CC(C)C)C(=O)N1CCOCC1 : 54.9

// recorded GI50 for O=C(N[C@@H](Cc1ccccc1)C(=O)N[C@@H](Cc1ccccc1)C(=O)Nc1ccc(C(F)(F)F)cc1)c1cc(Cl)ccc1O : 4.7
